B1: Homeobox protein cut-like 1, residues 941 to 1008; numbered along this chain, P39880 (parent)
chain: QEVDTIELTRQVKEKLAKNGICQRIFGEKVLGLSQGSVSDMLSRPKPWSKLTQKGREPFIRMQLWLNG

variants of: B1; assay: abundance fitness (aPCA) (normalised: wild type 0, dead -1); higher = more abundant; growth selection in yeast, the domain comes from the species named; settings: Homo sapiens
Reported abundance fitness by item:
metric_name: abundance fitness

seq_text="QEVDTIELTRQVKEKLAKNGICQRIFGEKVLGLSQGSVSDMLSRPLPWSKLTQKGREPFIRMQLWLNG [K46L]" numeric_readout=-0.07
seq_text="QEVDTIELTDQVKEKLAKNGICQRIFGEKVLGLSQGSVSDMLSRPKPWSKLTQKGREPFIRMQLWLNG [R10D]" numeric_readout=-0.112
seq_text="QEVDTIELTRQVKEKLAKNGICQRIFGEKVLGLSQGSVSDMLSRWKPWSKLTQKGREPFIRMQLWLNG [P45W]" numeric_readout=-0.108
seq_text="QEVDTIELTRQVKEKLAKNGICQRIFGEKVLGLSVGSVSDMLSRPKPWSKLTQKGREPFIRMQLWLNG [Q35V]" numeric_readout=0
seq_text="QEVDTIELTRQVKEILAKNGICQRIFGEKVLGLSQGSVSDMLSRPKPWSKLTQKGREPFIRMQLWLNG [K15I]" numeric_readout=-0.085
seq_text="QEVDTIELTRQVTEKLAKNGICQRIFGEKVLGLSQGSVSDMLSRPKPWSKLTQKGREPFIRMQLWLNG [K13T]" numeric_readout=-0.146
seq_text="QEVDTIEKTRQVKEKLAKNGICQRIFGEKVLGLSQGSVSDMLSRPKPWSKLTQKGREPFIRMQLWLNG [L8K]" numeric_readout=0.04
seq_text="QEVDTIELTRQVKEKLAKNGICQRCFGEKVLGLSQGSVSDMLSRPKPWSKLTQKGREPFIRMQLWLNG [I25C]" numeric_readout=-0.283
seq_text="QEVDTIELTRQVKEKLAKNGICQRIFGEKVLGLSQGSVSDMLSRPKPWIKLTQKGREPFIRMQLWLNG [S49I]" numeric_readout=-0.43
seq_text="QEVDTIELTRQVKEKLAKNGICQRIFGEKVLGLSQGSVSDMSSRPKPWSKLTQKGREPFIRMQLWLNG [L42S]" numeric_readout=-0.236
seq_text="QEVDTIELTRQVKEKLAKNGICQRIFGEKVLGLSQGSVSDMLSRPKPWDKLTQKGREPFIRMQLWLNG [S49D]" numeric_readout=-0.241
seq_text="QEVDTIELTRQVKEKLAKNGICQRIFGEKVLGLSQGSRSDMLSRPKPWSKLTQKGREPFIRMQLWLNG [V38R]" numeric_readout=-0.22
seq_text="QEVDTMELTRQVKEKLAKNGICQRIFGEKVLGLSQGSVSDMLSRPKPWSKLTQKGREPFIRMQLWLNG [I6M]" numeric_readout=0.06

Data provenance is the Human Domainome abundance scans (Beltran et al. 2025).
